Biological target: T1, hPRLR.mmh (soluble monomeric human PRLR) (Homo sapiens, UniProt P16471)
T1 construct: soluble monomeric (hPRLR.mmh); mmh (myc-myc-hexahistidine)
T1 sequence (P16471 with tags, fused parts or gaps): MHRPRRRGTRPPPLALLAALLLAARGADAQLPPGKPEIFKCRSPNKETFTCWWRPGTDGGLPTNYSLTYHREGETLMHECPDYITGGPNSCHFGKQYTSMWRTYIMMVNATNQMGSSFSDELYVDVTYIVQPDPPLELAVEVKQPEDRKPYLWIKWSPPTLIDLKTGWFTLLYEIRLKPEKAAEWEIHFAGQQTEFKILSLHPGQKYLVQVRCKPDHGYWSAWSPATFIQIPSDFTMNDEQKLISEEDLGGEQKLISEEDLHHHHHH
Experiment: Surface plasmon resonance (Biacore T200), mAb-capture format
Format: binding
Details: 25° C., antibody-capture format, analyte hPRLR.mmh
Procedure: Antibodies, expressed as human IgG1 Fc “[…]” designations), were captured onto an anti-human Fc sensor surface (mAb-capture format), and soluble monomeric (hPRLR.mmh; SEQ ID NO:401, or macaca fascicularis (mf) PRLR.mmh; SEQ ID NO:403) or dimeric (hPRLR.mFc; SEQ ID NO:402) PRLR protein was injected over the sensor surface. Measurements were conducted on a T200 Biacore instrument. […]
Reported Endpoint: T½

Problem: Determine its reported T½: H1H6801P: anti-PRLR antibody, human IgG1 Fc; HCVR/LCVR SEQ ID NOs 210/218 (antibody, V domains shown, human IgG1 Fc) VH: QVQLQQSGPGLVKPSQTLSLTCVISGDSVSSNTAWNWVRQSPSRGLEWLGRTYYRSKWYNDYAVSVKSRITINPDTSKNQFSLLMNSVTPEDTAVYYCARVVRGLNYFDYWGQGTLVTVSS VL: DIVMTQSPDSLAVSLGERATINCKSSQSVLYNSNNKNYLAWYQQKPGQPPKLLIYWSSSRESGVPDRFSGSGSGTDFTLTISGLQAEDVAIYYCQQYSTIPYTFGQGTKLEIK
Solution: 15 min

Continuing:
Problem: Determine its reported T½: H1H6781P: anti-PRLR antibody, human IgG1 Fc; HCVR/LCVR SEQ ID NOs 50/58 (antibody, V domains shown, human IgG1 Fc) VH: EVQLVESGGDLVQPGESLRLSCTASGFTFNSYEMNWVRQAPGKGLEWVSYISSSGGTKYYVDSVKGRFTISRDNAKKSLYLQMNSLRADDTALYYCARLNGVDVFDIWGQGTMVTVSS VL: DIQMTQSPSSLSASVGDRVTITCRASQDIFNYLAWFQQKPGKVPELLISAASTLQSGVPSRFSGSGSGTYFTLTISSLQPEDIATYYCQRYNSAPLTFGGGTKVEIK
Solution: 91 min

Problem: Determine its reported T½: H1H6959N2: human IgG1 Fc form of H2M6959N2; anti-PRLR; HCVR/LCVR SEQ ID NOs 306/314 (antibody, V domains shown, human IgG1 Fc) VH: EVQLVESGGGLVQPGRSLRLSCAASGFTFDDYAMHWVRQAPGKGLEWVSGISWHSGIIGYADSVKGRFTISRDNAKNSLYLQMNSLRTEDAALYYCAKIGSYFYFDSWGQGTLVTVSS VL: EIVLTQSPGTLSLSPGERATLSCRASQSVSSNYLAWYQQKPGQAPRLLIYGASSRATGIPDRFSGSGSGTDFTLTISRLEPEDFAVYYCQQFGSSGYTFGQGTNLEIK
Solution: 0.3 min

Problem: Determine its reported T½: H1H6762P: anti-PRLR antibody, human IgG1 Fc; HCVR/LCVR SEQ ID NOs 2/10 (antibody, V domains shown, human IgG1 Fc) VH: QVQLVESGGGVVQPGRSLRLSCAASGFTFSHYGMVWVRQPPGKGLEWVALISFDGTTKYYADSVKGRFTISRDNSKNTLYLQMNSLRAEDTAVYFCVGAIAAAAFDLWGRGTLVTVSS VL: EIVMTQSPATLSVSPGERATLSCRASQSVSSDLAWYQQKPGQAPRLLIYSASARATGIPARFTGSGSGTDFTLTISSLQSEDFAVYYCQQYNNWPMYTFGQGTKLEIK
Solution: 64 min

Problem: Determine its reported T½: H1H6967N: human IgG1 Fc form of H2M6967N; anti-PRLR; HCVR/LCVR SEQ ID NOs 354/362 (antibody, V domains shown, human IgG1 Fc) VH: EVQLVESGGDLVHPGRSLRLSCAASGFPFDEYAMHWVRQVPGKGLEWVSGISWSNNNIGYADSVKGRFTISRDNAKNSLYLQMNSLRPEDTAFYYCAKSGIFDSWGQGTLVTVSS VL: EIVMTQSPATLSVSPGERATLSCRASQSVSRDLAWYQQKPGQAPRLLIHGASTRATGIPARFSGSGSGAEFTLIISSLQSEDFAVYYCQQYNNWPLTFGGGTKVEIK
Solution: 34.8 min

Data origin, for the record: patent US9688764B2
